I'd appreciate it if you could supply binding signal values for the items below.
Biological target: MoHTR1 (Magnaporthe oryzae, UniProt Q2KEJ2 20-198)
Sequence: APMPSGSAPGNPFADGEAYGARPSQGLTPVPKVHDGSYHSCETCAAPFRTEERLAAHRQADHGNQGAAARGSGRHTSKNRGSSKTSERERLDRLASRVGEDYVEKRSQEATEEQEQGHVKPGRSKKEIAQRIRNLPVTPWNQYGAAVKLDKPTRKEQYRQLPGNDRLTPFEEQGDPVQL
Test: array; high values mean tight binding
Conditions: protein: recombinant; tags: DsRed; 6xHis (pET-32a vector); dsDNA, one strand shown
Numbers only, in a.u..

{"columns": ["MONOMER SEQUENCE", "TESTED ON", "binding signal / a.u."],
 "data": [
  ["CCTCAATC", "MoHTR1 (Magnaporthe oryzae, UniProt Q2KEJ2 20-198)", 19700],
  ["CTCTAATC", "MoHTR1 (Magnaporthe oryzae, UniProt Q2KEJ2 20-198)", 21800],
  ["CCTCCACC", "MoHTR1 (Magnaporthe oryzae, UniProt Q2KEJ2 20-198)", 23900],
  ["TCTCAATC", "MoHTR1 (Magnaporthe oryzae, UniProt Q2KEJ2 20-198)", 24100],
  ["CTCCAACC", "MoHTR1 (Magnaporthe oryzae, UniProt Q2KEJ2 20-198)", 14800]
]}

Please state binding signal for every sequence in the list that follows.
1. CAATCTTC
2. CTTCAATC

1. 27900
2. 21100

* * *

I'd appreciate it if you could supply binding signal values for the items below.
Molecular target: MoHTR1 (Magnaporthe oryzae, UniProt Q2KEJ2 20-198)
Sequence: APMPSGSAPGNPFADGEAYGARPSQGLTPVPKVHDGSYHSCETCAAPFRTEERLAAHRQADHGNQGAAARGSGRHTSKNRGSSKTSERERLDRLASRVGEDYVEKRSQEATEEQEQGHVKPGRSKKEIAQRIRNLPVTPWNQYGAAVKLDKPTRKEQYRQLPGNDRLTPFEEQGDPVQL
Assay: array; high values mean tight binding
Settings: protein: recombinant; tags: DsRed; 6xHis (pET-32a vector); dsDNA, one strand shown
Don't forget the unit after the number, please.

{"columns": ["MONOMER SEQUENCE", "binding signal"],
 "data": [
  ["CTAACTCC", "22500 a.u."],
  ["TCAATCTC", "23900 a.u."],
  ["AACTCTCC", "21600 a.u."],
  ["CAATCTCC", "20800 a.u."]
]}

Could you now consider this next sequence?
Query the reported binding signal for MoHTR1 (Magnaporthe oryzae, UniProt Q2KEJ2 20-198); item: TCCAATCC 22900 a.u.
